protocol.notes: Tissue distribution of SDC-TRAPs in tumor-bearing mice (plasma, tumor, heart)
assay.conditions: mouse, in vivo
measure.name: Kp at 48 h

Report Kp at 48 h for CC(C)c1cc(-c2nnc(O)n2-c2ccc(CC3CCN(CC(=O)Nc4cccc5c4CN(C4CCC(=O)NC4=O)C5=O)CC3)cc2)c(O)cc1O (stereo not shown)
4.65

---

protocol.notes: Stability in mouse plasma
Format: in vitro ADME
assay.conditions: mouse, plasma, 1 h, 10 μM
Recorded % Remaining values for a group of molecules are listed next.
Expressed in %, but write only the number.

Recorded % Remaining, per entry:
- molecule: "CC(C)c1cc(-c2nnc(O)n2-c2ccc(CC3CCN(CC(=O)Nc4cccc5c4CN(C4CCC(=O)NC4=O)C5=O)CC3)cc2)c(O)cc1O (centres unmarked) [SDC-TRAP-0116]"
  measure.name: "% Remaining"
  recorded.result: 91.1
- molecule: "CCNC(=O)c1nnc(-c2cc(C(C)C)c(O)cc2O)n1-c1ccc2c(c1)CN(Cc1cc(OC)c(OC(=O)Nc3cccc4c3CN(C3CCC(=O)NC3=O)C4=O)c(OC)c1)C2 (centres unmarked) [SDC-TRAP-0196]"
  measure.name: "% Remaining"
  recorded.result: 66.2
- molecule: "CCNC(=O)c1nnc(-c2cc(C(C)C)c(O)cc2O)n1-c1ccc(CN2CCC(C(=O)N3CCC(COC(=O)Nc4cccc5c4CN(C4CCC(=O)NC4=O)C5=O)CC3)CC2)cc1 (centres unmarked) [SDC-TRAP-0124]"
  measure.name: "% Remaining"
  recorded.result: 112

Report % Remaining for CCNC(=O)c1nnc(-c2cc(C(C)C)c(O)cc2O)n1-c1ccc(CN2CCC(C(=O)N[C@H](C(=O)Nc3cccc4c3CN(C3CCC(=O)NC3=O)C4=O)C(C)C)CC2)cc1 (some centres unmarked) [SDC-TRAP-0163]
93.0

Report % Remaining for CC(C)c1cc(-c2nnc(O)n2-c2ccc(CC(=O)N(C)CCOC(=O)Nc3cccc4c3CN(C3CCC(=O)NC3=O)C4=O)cc2)c(O)cc1O (centres unmarked) [SDC-TRAP-0127]
87.3
